Field: pKd. Provide a value for each of the compounds that follow.
- TARGET UNDER TEST: human SOS1 (Homo sapiens (Human), UniProt Q07889)
- Sequence (Q07889 564-1049): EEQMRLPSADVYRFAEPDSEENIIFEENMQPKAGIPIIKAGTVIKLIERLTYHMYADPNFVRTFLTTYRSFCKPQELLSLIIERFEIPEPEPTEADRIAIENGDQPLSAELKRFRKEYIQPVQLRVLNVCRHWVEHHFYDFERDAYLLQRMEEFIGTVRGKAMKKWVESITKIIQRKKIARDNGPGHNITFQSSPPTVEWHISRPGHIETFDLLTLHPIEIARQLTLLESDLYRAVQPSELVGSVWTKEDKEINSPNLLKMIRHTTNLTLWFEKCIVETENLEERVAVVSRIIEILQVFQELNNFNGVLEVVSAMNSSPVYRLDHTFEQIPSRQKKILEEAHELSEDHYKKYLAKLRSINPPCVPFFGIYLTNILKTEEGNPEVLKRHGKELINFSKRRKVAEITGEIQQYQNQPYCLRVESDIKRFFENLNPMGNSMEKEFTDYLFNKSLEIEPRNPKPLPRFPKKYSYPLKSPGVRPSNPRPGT
By convention, pKd is the negative base-10 log of a molar concentration.

Looking up Cc1c([C@@H](C)NC(=O)c2cn(C3CCOCC3)c(=O)cc2N[C@@H]2CCCN(C)C2)cccc1C(F)(F)F [Example 5] , I found its pKd recorded as 7.70

Looking up C[C@@H](NC(=O)c1cn([C@@]2(C)CCOC2)c(=O)cc1NC1CCN(C)CC1)c1cccc(C(F)F)c1F (single isomer, unassigned) [Example 47] , I found its pKd recorded as 8.70

Looking up C[C@@H](NC(=O)c1cn(C2(C(F)F)CC2)c(=O)cc1N[C@H]1[C@@H]2CN(C)C[C@@H]21)c1cccc(C(C)(F)F)c1F [Example 121] , I found its pKd recorded as 7.68

Looking up CO[C@H]1CN(C)CC[C@@H]1Nc1cc(=O)n(C2CCOCC2)cc1C(=O)N[C@H](C)c1cccc(C(F)(F)F)c1C (single isomer, unassigned) [Example 25] , I found its pKd recorded as 7.35

Looking up Cc1c([C@@H](C)NC(=O)c2cn(C3CCOCC3)c(=O)cc2NC2(C)CCN(C)CC2)cccc1C(F)(F)F [Example 45] , I found its pKd recorded as 7.68

Looking up C[C@@H](NC(=O)c1cn([C@@H]2CCOC[C@H]2F)c(=O)cc1NC1CCN(C)CC1)c1cccc(C(F)F)c1F [Example 79] , I found its pKd recorded as 8.70
